- Tested on: RARb:RXRa (NR concentration 270 nM, RXRa partner concentration 90 nM)
- assay notes: PBM binding z-score (relative to random genomic background probes); higher = stronger binding; sequences stand for … in GC…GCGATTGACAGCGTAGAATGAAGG
quantity kind: PBM binding z-score
Format: numeric value only, no unit, no commentary.

primary sequence | PBM binding z-score
ACTTACGGGTCAACGAGGTTATAGCGCGCGTATA | 4.29

Recall and state the measured PBM binding z-score for GGAACGAGGGCACTCGAGTTGATAGCATGGCGAT . 1.93

Recall and state the measured PBM binding z-score for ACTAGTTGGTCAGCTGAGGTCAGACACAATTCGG . 2.86

Recall and state the measured PBM binding z-score for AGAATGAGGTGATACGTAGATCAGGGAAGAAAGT . 0.411

---

Catalogue of PBM binding z-score values
- System: PPARg:RXRa 30nM:10nM, anti-RXR (NR concentration 30 nM, RXRa partner concentration 10 nM)
- assay notes: PBM binding z-score (relative to random genomic background probes); higher = stronger binding; sequences stand for … in GC…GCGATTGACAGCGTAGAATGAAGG
Format: numeric value only, no unit, no commentary.

Worked cases, answers included:
primary sequence | PBM binding z-score
CAAACTAGGTGACGAAAGGTCAAAGTCGAATGAC | 4.53
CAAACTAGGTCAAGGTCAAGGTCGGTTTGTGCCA | 6.34
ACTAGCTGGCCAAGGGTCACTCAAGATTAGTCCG | 3.16
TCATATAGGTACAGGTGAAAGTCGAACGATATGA | 3.76
CCTTACGGGTCACTCCGGGTTATAGCATCGGAGT | 1.34

Recall and state the measured PBM binding z-score for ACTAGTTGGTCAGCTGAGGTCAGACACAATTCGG . 0.223

---

- System: PPARg:RXRa DBDmut IVT, anti-RXR (DBD mutation: RXRa K156A/R161A, NR concentration 270 nM, RXRa partner concentration 90 nM)
- assay notes: PBM binding z-score (relative to random genomic background probes); higher = stronger binding; sequences stand for … in GC…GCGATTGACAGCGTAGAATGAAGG
quantity kind: PBM binding z-score
Format: numeric value only, no unit, no commentary.

Worked cases, answers included:
primary sequence | PBM binding z-score
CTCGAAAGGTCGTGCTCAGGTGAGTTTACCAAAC | 0.999
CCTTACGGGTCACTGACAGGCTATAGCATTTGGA | 3.84
TAGCCTAGGTCATACGGGCCAGTATAGTGTCGGC | 1.67
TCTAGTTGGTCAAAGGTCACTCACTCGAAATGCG | 3.67
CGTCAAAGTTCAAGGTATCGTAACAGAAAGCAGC | 0.378

Pending sequence:
Recall and state the measured PBM binding z-score for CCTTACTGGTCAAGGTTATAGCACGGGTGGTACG . 0.149

---

- Test system: PPARg:RXRa DBDmut IVT, anti-RXR (DBD mutation: RXRa K156A/R161A, NR concentration 270 nM, RXRa partner concentration 90 nM)
- assay notes: PBM binding z-score (relative to random genomic background probes); higher = stronger binding; sequences stand for … in GC…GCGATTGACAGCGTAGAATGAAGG
Outcome label depends on PBM binding z-score relative to 3: at/above gives 1, below gives -1.

primary sequence | answer label
AGAACGAGGGCAATGAGTTGATAGGACGGGTGGC | 1
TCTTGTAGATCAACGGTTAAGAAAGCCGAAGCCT | -1
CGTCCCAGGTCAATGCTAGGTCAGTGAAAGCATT | -1
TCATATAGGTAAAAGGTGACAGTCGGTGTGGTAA | 1
ACTCGGAGCACAAAGGTCAGAGCTACGCCAGTGA | -1
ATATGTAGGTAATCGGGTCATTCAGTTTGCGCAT | 1
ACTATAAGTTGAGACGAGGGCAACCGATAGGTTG | -1
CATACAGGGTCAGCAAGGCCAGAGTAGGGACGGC | -1

Given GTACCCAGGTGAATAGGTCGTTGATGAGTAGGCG , state whether its PBM binding z-score is at least 3. -1

Given CTCGAAAGGTCGGTTGAGGTAAGTATACGGATAA , state whether its PBM binding z-score is at least 3. -1

---

- Tested on: PPARg:RXRa DBDmut IVT, anti-RXR (DBD mutation: RXRa K156A/R161A, NR concentration 270 nM, RXRa partner concentration 90 nM)
- assay notes: PBM binding z-score (relative to random genomic background probes); higher = stronger binding; sequences stand for … in GC…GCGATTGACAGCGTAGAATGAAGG
quantity kind: PBM binding z-score
Format: numeric value only, no unit, no commentary.

primary sequence | assay result
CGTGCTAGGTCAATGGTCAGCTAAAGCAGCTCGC | 4.64
CAAACTAGGTCACCGGAAGGACAAAGTCCGCATG | 8.34
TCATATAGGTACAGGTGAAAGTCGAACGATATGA | 2.01
CCTAGCAGGCCAATCTGGGTCACTAAAGGCTTGA | 4
CCTTACGGGTCACTACAGGTTATAGCATCGGAGT | 2.72
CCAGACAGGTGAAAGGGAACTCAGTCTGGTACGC | 1.08
TCGAGGAGGTTAGTCGGGGCATTCAGCCAACATA | 1.28
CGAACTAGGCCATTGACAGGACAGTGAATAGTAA | 6.87

Pending sequence:
Recall and state the measured PBM binding z-score for ACTAGCAGGCCAAGTTTGGGGCACTCAAACAAAG . 0.771

---

- Test system: RXRa DBDmut IVT, anti-RXR (DBD mutation: RXRa K156A/R161A, NR concentration 90 nM)
- assay notes: PBM binding z-score (relative to random genomic background probes); higher = stronger binding; sequences stand for … in GC…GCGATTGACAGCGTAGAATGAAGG
Catalogue of PBM binding z-score values
Format: numeric value only, no unit, no commentary.

Worked cases, answers included:
primary sequence | PBM binding z-score
CCTGCTAGATCAATGGTCAGCTAAAGCAGCTCGC | 0.00874
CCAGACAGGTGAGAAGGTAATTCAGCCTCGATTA | -0.0232
ATCTCTAGGCAAAGTTCAGTGAAAGATCGATAGA | 1.24
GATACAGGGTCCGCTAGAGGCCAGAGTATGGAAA | -0.114

Recall and state the measured PBM binding z-score for TCTATAAGTTGAAGGGCAACCGACGAGTCCGTTT . 1.59

Recall and state the measured PBM binding z-score for TCGAGTAGGTTAGCCGGGGCATTCAGCCAACATA . 0.227

Recall and state the measured PBM binding z-score for CGTCCAAGGTCAATGGTCAGTGAAGAGATGACGG . 3.36

Recall and state the measured PBM binding z-score for ACTTATGGGTCAACGAGGTTATAGCACGCGTATA . 1.92

Recall and state the measured PBM binding z-score for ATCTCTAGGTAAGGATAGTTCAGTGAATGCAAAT . 0.233

---

- System: RARb homodimer (NR concentration 270 nM)
- assay notes: PBM binding z-score (relative to random genomic background probes); higher = stronger binding; sequences stand for … in GC…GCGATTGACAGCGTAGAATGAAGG
quantity kind: PBM binding z-score
Format: numeric value only, no unit, no commentary.

primary sequence | assay result
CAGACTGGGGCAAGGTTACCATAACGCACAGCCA | 1.35

Pending sequence:
Recall and state the measured PBM binding z-score for TCTAGTTGGTCACGGAGGTCACACAAGACGGGTA . 4.03

---

- Test system: VDR:RXRa (NR concentration 270 nM, RXRa partner concentration 90 nM)
- assay notes: PBM binding z-score (relative to random genomic background probes); higher = stronger binding; sequences stand for … in GC…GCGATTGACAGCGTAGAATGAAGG
quantity kind: PBM binding z-score
Format: numeric value only, no unit, no commentary.

Worked cases, answers included:
primary sequence | measured target | PBM binding z-score
TAGCCTAGGACATTGGGCCAGTATAGTACGCATC | VDR:RXRa (NR concentration 270 nM, RXRa partner concentration 90 nM) | -0.544
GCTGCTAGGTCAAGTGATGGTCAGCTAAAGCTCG | VDR:RXRa (NR concentration 270 nM, RXRa partner concentration 90 nM) | 1.63
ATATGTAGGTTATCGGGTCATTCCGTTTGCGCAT | VDR:RXRa (NR concentration 270 nM, RXRa partner concentration 90 nM) | 3.86

Recall and state the measured PBM binding z-score for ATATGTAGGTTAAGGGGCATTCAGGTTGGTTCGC . 2.2

Recall and state the measured PBM binding z-score for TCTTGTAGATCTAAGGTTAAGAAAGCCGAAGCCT . 0.651

Recall and state the measured PBM binding z-score for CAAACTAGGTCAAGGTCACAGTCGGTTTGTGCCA . 5.06

Recall and state the measured PBM binding z-score for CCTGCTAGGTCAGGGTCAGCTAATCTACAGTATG . 2.86

Recall and state the measured PBM binding z-score for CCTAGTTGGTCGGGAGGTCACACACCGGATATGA . 3.78

Recall and state the measured PBM binding z-score for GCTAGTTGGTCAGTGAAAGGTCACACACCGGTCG . 4.14

Recall and state the measured PBM binding z-score for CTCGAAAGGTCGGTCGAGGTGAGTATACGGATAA . 2.25

Recall and state the measured PBM binding z-score for ACAATGAGGTTAAGATCAGGGAAACAGAATACAT . 1.3

Recall and state the measured PBM binding z-score for ACTATTAGTTAAGACGAGGGCAACCGATAGGTTG . 0.464

Recall and state the measured PBM binding z-score for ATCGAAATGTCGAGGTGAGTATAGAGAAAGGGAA . -0.253

Recall and state the measured PBM binding z-score for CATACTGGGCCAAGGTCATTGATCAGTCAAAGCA . 3.48

Recall and state the measured PBM binding z-score for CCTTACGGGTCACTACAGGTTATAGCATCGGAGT . 4.06

Recall and state the measured PBM binding z-score for ACTATTAGTTGAGACTAGGGCAACCGATAGGTTG . -0.386

Recall and state the measured PBM binding z-score for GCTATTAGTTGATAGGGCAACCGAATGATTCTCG . -0.195

Recall and state the measured PBM binding z-score for GCATATAGGTAATACAAGGAGAAAGTCCGATTGT . -0.177

Recall and state the measured PBM binding z-score for ATCGAAAGGTCGAGGTCAGTATAGAGAAAGGGAA . 4.49
